assay: blockers of Trypanosoma cruzi growth in host cells – cell-based, NIH3T3 host, beta-gal parasite, luminescence, cherry-pick, confirmation (AID 651739); conditions: T. cruzi beta-gal in NIH3T3, GalScreen luminescence, 90 h; at 8.35 µM; stronger effect = higher value
Among all 5,600 compounds or so, about 4,100 (73%) were called active. Not shown: some 4% with an inconclusive outcome. The set was probably picked from earlier hits. Only a sample is shown.

[
  {
    "itemSmiles": "CCCC#Cc1ccc2c(c1)O[C@@H](CN(C)C(=O)c1ccccc1F)[C@H](C)CN([C@H](C)CO)S2(=O)=O",
    "quantityUnit": "%",
    "inhibition": 105
  },
  {
    "itemSmiles": "O=C(Nc1cccc(F)c1)N1CCCCN2[C@H](CO)[C@H](c3ccc(C#CC4CC4)cc3)[C@@H]2C1",
    "quantityUnit": "%",
    "inhibition": 109
  },
  {
    "itemSmiles": "COCC(=O)N1[C@H](CO)[C@@H](c2ccc(C#Cc3ccccc3F)cc2)[C@@H]1C#N",
    "quantityUnit": "%",
    "inhibition": 107
  }
]
